System: MPNST multicellular tumor spheroids, viability % test/control
testMethodNotes: Anticancer human tumor MPNST cell line growth inhibition;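 further: luminescence signal used as surrogate for viable cell amount; spheroids exposed to agents for seven days after three days of growth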
testParameters: second compound 0.03 µM; first compound 0.316 µM; hits give low values
resultType: viability, T/C (%)
Give bare numbers, in %.

compound	resultType	assayValue
Cc1cc(C)c(CNC(=O)c2cc(-c3ccc(CN4CCOCC4)cc3)cc3c2cnn3C2CCCC2)c(=O)[nH]1 + CC[C@@]1(O)C(=O)OCc2c1cc1n(c2=O)Cc2cc3c(CN(C)C)c(O)ccc3nc2-1	viability, T/C	50
CC(C)n1c(=O)n(C)c2cnc3cc(F)c(-c4ccc(OCCCN5CCCCC5)nc4)cc3c21 + CC[C@@]1(O)C(=O)OCc2c1cc1n(c2=O)Cc2cc3c(CN(C)C)c(O)ccc3nc2-1	viability, T/C	38.9
COc1cc(C)[nH]c(=O)c1CN1CCc2c(Cl)cc(C(OC)C3COC3)c(Cl)c2C1=O (stereo unspecified) + CC[C@@]1(O)C(=O)OCc2c1cc1n(c2=O)Cc2cc3c(CN(C)C)c(O)ccc3nc2-1	viability, T/C	51.5
COc1ccc([C@@H](O)c2cc(-c3ncnc4cc(N5CCOCC5)ccc34)c(F)cc2Cl)nn1 + CC[C@@]1(O)C(=O)OCc2c1cc1n(c2=O)Cc2cc3c(CN(C)C)c(O)ccc3nc2-1	viability, T/C	42.6
CC1COCCN1c1cc(-c2ccnn2C)c2ccnc(-c3ccn[nH]3)c2n1 (stereo unspecified) + CC[C@@]1(O)C(=O)OCc2c1cc1n(c2=O)Cc2cc3c(CN(C)C)c(O)ccc3nc2-1	viability, T/C	48.4

[Q] Hi! What's the reported viability, T/C for [2H]c1nc(C)nc([2H])c1-c1cc(NC[C@@H](C)c2cccc3c(C(=O)NC)ccnc23)ncn1 + CC[C@@]1(O)C(=O)OCc2c1cc1n(c2=O)Cc2cc3c(CN(C)C)c(O)ccc3nc2-1 on MPNST multicellular tumor spheroids, viability % test/control?
[A] 37.6
